Test system: endothelial tube formation in co-cultures of ECFCs and ADSCs treated with VEGF
Assay: cells
Assay type: cell-based, human
Details: read-out: Anti-Angiogenesis
pIC50: −log10 of the molar value.
Attribute: pIC50

| givenSmiles | resultQualifier | pIC50 |
| --- | --- | --- |
| Nc1cc(C(F)(F)F)ccc1S | < | 5.00 |
| COc1ccc(OC(=O)N(CC(=O)O)Cc2ccc(OCCc3nc(-c4ccccc4)oc3C)cc2)cc1 | < | 5.00 |
| CCN(CC)CCNc1ccc(CO)c2sc3ccccc3c(=O)c12 | = | 5.08 |
| O=C(CCBr)N1CCN(C(=O)CCBr)CC1 | = | 5.86 |
| O=C([O-])CN(CCN(CC(=O)[O-])CC(=O)O)CCN(CC(=O)[O-])CC(=O)O.[Gd+3] | < | 5.00 |
